- assayedTarget: E. coli Topo IV (Escherichia coli)
- Construct: purchased Inspiralis Limited, Norwich, UK
- Sequence (P20083 whole entry): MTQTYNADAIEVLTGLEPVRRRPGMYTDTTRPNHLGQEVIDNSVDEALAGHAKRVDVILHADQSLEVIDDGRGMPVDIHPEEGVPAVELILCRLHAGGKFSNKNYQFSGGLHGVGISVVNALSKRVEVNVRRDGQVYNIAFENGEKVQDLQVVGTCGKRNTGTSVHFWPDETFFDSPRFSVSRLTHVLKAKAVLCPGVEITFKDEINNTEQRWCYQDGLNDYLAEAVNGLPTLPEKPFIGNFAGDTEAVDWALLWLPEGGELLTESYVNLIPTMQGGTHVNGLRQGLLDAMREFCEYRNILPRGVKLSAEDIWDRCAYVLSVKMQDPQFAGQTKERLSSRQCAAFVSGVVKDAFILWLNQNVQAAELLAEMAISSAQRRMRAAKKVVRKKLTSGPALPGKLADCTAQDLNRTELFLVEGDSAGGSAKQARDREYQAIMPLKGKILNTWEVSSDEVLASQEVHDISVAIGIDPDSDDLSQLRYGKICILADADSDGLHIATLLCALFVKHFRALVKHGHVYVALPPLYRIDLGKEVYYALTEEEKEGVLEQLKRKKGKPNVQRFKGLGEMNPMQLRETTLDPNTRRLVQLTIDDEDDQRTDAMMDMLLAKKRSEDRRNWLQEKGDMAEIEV
- Sequence (P0AFI2 whole entry, further chain): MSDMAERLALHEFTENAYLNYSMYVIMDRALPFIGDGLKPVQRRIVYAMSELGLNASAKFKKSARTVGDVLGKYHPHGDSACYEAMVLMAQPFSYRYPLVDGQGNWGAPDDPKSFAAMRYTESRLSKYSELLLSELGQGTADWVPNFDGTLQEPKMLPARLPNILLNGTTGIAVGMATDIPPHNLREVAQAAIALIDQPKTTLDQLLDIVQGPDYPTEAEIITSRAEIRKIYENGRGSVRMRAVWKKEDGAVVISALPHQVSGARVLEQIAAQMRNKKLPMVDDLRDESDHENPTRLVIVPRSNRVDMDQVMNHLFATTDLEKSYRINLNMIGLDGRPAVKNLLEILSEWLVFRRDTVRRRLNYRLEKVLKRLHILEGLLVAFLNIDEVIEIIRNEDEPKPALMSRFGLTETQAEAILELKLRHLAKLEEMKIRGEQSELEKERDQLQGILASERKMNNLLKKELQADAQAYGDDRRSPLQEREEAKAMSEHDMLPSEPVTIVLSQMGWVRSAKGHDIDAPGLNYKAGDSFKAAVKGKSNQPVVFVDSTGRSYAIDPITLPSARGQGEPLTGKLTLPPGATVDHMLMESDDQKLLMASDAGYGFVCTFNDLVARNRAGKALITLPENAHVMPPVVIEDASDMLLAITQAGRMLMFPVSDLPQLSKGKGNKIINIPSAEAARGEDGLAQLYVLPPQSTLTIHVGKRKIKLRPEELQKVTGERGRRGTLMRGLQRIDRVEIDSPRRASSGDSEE
- experimentDescription: Topo IV relaxation assay (Inspiralis kit)
- Type: biochemical
- measurementSetup: mean ± SD of three independent experiments, read-out: IC50 E. coli Topo IV
Please go through the items and note down their pIC50.
Please report pIC50 as the negative decimal logarithm of the molar concentration, giving only the number.

Q: Using known records, supply pIC50 for COCCCNc1cc2nc(NC(=O)c3[nH]c(C)c(Cl)c3Cl)sc2cc1C(=O)O [Compound E]
A: 6.68

Q: Using known records, supply pIC50 for Cc1[nH]c(C(=O)Nc2nc3c(C)c(F)c(C(=O)O)cc3s2)c(Cl)c1Cl [Compound B]
A: 5.70

Q: Using known records, supply pIC50 for Cc1[nH]c(C(=O)Nc2nc3cc(NCc4ccccc4)c(C(=O)O)cc3s2)c(Cl)c1Cl [Compound D]
A: 6.53

====

- System: K. pneumoniae ATCC10031
- experimentDescription: MIC, broth microdilution (CLSI)
- Type: cell-based
- measurementSetup: Klebsiella pneumoniae, first value of cell
assayEndpoint: MIC (µg/mL)
Respond with the bare value in µg/mL.

Q: Using known records, supply MIC for "Cc1[nH]c(C(=O)Nc2nc3cc(NCc4ccccc4)c(C(=O)O)cc3s2)c(Cl)c1Cl"
A: 4

Q: Using known records, supply MIC for "COCCCNc1cc2nc(NC(=O)c3[nH]c(C)c(Cl)c3Cl)sc2cc1C(=O)O"
A: 4

Q: Using known records, supply MIC for "CC(=O)N(Cc1ccccc1)c1cc2nc(NC(=O)c3[nH]c(C)c(Cl)c3Cl)sc2cc1C(=O)O"
A: 64

====

Please go through the items and note down their IC50.
- assayedTarget: E. coli gyrase (Escherichia coli)
- Construct: purchased Inspiralis Limited, Norwich, UK
- experimentDescription: DNA gyrase supercoiling assay (Inspiralis kit)
- Type: biochemical
- measurementSetup: mean ± SD of three independent experiments

Q: Using known records, supply IC50 for "COCCCNc1cc2nc(NC(=O)c3[nH]c(C)c(Cl)c3Cl)sc2cc1C(=O)O"
A: < 10 nM

Q: Using known records, supply IC50 for "CC(=O)N(Cc1ccccc1)c1cc2nc(NC(=O)c3[nH]c(C)c(Cl)c3Cl)sc2cc1C(=O)O"
A: 71 nM

Q: Using known records, supply IC50 for "Cc1[nH]c(C(=O)Nc2nc3c(C)c(F)c(C(=O)O)cc3s2)c(Cl)c1Cl"
A: 40 nM

Q: Using known records, supply IC50 for "Cc1[nH]c(C(=O)Nc2nc3cc(NCc4ccccc4)c(C(=O)O)cc3s2)c(Cl)c1Cl"
A: < 10 nM

====

- System: Enterobacter cloacae ATCC13047
- experimentDescription: MIC, broth microdilution (CLSI)
- Assay type: cell-based
- measurementSetup: second value of cell
assayEndpoint: MIC

Q: Using known records, supply MIC for Cc1[nH]c(C(=O)Nc2nc3c(C)c(F)c(C(=O)O)cc3s2)c(Cl)c1Cl [Compound B]
A: > 159 µM

Q: Using known records, supply MIC for COCCCNc1cc2nc(NC(=O)c3[nH]c(C)c(Cl)c3Cl)sc2cc1C(=O)O [Compound E]
A: > 140 µM

Q: Using known records, supply MIC for CC(=O)N(Cc1ccccc1)c1cc2nc(NC(=O)c3[nH]c(C)c(Cl)c3Cl)sc2cc1C(=O)O [Compound C]
A: > 124 µM

Q: Using known records, supply MIC for Cc1[nH]c(C(=O)Nc2nc3cc(NCc4ccccc4)c(C(=O)O)cc3s2)c(Cl)c1Cl [Compound D]
A: > 135 µM
